Target: T1, VirD-NTSR1 (human, UniProt P30989 1-418)
T1 construct: source: recombinant HSV-1 (UL27 locus); virions from infected cells (in most cases Vero), purified by sucrose cushion; also on infected Vero cells; not shown: V5, C-terminal, kept
T1 sequence (P30989 whole entry): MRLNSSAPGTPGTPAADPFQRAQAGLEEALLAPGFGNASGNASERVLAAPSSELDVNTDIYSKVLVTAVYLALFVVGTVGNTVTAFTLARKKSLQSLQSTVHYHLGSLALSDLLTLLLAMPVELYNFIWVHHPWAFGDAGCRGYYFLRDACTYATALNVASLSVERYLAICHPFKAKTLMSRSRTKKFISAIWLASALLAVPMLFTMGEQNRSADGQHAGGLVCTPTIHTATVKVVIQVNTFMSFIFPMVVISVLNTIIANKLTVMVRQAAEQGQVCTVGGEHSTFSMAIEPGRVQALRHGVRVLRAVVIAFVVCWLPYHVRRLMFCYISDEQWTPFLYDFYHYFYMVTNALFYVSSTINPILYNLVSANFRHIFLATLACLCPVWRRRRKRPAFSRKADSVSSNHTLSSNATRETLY
Experiment: virion-oscillator (plasmonic imaging, SPR read-out); VirD-GPCR virions tethered to a gold chip by a PEG linker and driven by a sinusoidal potential (5 Hz); label-free SRIF-14 perfused at several doses; first-order kinetics model
Conditions: one partner purified
No end group written: not given here.

binder: AGCKNFFWKTFTSC (not fully specified (bridges); ends and bridges not checked, somatostatin-14 (SRIF-14), cut product of the somatostatin precursor; also called cold SRIF-14; SIRF-14; source: bought: AnaSpec (peptide)) [somatostatin-14 (SRIF-14), unlabeled]
Kd, nM: 2600
